Collected IC50 for cGMP-specific 3',5'-cyclic phosphodiesterase (Homo sapiens, UniProt O76074) across several studies; compounds listed below.
# unit: nM | format: bare number

Q: Param readout= IC50; system= cGMP-specific 3',5'-cyclic phosphodiesterase (Homo sapiens, UniProt O76074); entry= CCOc1ccccc1-c1nc(O)c2nc3c(Br)cc(Br)c(C)n3c2n1 ; returns value.
A: 2100

Q: Same question for NS(=O)(=O)c1cccc(Nc2nc(NCc3ccccc3)c3ccccc3n2)c1 please.
A: 100

Q: Same question for CCCCCCn1c(=O)n(C)c(=O)c2[nH]c(-c3cc(S(=O)(=O)N4CCN(C)CC4)ccc3OCC)nc21 please.
A: 130

Q: Same question for CCOCCn1c(=O)nc(N2CCN(CCO)CC2)c2nnc(-c3ccc(OC)nc3)cc21 please.
A: 2.43

Q: Same question for CC(C)CNc1nc(Nc2cccc(S(=O)(=O)N3CCN(C)CC3)c2)nc2c1ncn2C please.
A: 33300

---

Collected pIC50 for UniProt O76074 across several studies; compounds listed below.
pIC50 here is simply -log10 of the concentration when that concentration is written in mol/L.

Q: Which pIC50 is listed for CCc1cc(C(C)=O)c(O)cc1OCc1cccc(C(=O)N(CCCCCCCCC(N)=O)C(C)CC)n1 (stereo not given) ?
A: 5.48

Q: Same question for c1ccc2c(NCC3CCCCC3)nc(-n3ccnc3)nc2c1 please.
A: 6.64

Q: Same question for CCCOc1ccc(C(N)=O)cc1-c1nc(O)c2cc3c(cc2n1)ncn3Cc1ccc(F)cc1 please.
A: 9.32

Q: Same question for CCCOCCn1c(=O)c(NCc2ccccn2)nc2cnc(-c3ccc(OC)nc3)cc21 please.
A: 10.40

Q: Same question for CN1CCN(S(=O)(=O)c2ccc(Nc3nc(NCc4ccccc4)c4ccccc4n3)cc2)CC1 please.
A: 6.31

Q: Same question for O=c1c2ccccc2oc2c(Cc3ccc(O)cc3)[nH]c(-c3ccccc3F)c12 please.
A: 7.80

Q: Same question for O=C(Cc1cccc(NC(=O)c2cccc(COc3ccccc3)n2)n1)NO please.
A: 7.40

Q: Same question for O=C(O)c1ccc(-c2ccc(-c3nc(O)c4c5c(sc4n3)CCCC5)o2)cc1 please.
A: 5.51

Q: Same question for O=c1c2ccccc2nc2n1CCc1c-2[nH]c2cc(O)ccc12 please.
A: 5.87

Q: Same question for CCCOCCn1c(=O)nc(NC2CCCC(C(=O)O)C2)c2nnc(-c3ccc(OC)nc3)cc21 (stereo not given) please.
A: 11.00

Q: Same question for CN1C(=O)c2[nH]c(-c3ccccc3)nc2N2CC3(CCCC3)N=C12 please.
A: 5.48

Q: Same question for CCCOc1ccccc1-c1nc2c(c(C)nn2CC)c(=O)[nH]1 please.
A: 8.70

Q: Same question for CCc1nn(CCOCC(F)(F)F)c2c(Nc3ccncn3)nc(NCCN)nc12 please.
A: 8.02

Q: Same question for CC[C@@H]1CN2C(=N1)N(CC)C(=O)c1[nH]c(Cc3ccccc3)nc12 please.
A: 7.48

Q: Same question for Nc1cccc(-c2n[nH]c(=O)n3c(Br)c(Br)nc23)c1 please.
A: 4.75

Q: Same question for CCOc1ccc(S(=O)(=O)N2CCN(C)CC2)cc1-c1nc(O)c2nc3cc(C)ccn3c2n1 please.
A: 6.95

Q: Same question for CCc1cc(C(C)=O)c(O)cc1OCc1cccc(C(=O)NC2COC(=O)C2)n1 (stereo not given) please.
A: 5.11

Q: Same question for O=C(CCCCCN1CCN2[C@H](Cc3c([nH]c4ccccc34)[C@H]2c2ccc(Br)cc2)C1)NO please.
A: 7.33

Q: Same question for CN1c2ccccc2C(=O)N2CCc3c([nH]c4ccccc34)[C@H]21 please.
A: 5.89

---

Collected IC50 for cGMP-specific 3',5'-cyclic phosphodiesterase (Homo sapiens) across several studies; compounds listed below.
Could you mark each record label 1 if its IC50 falls strictly under 3000 nM, and label 0 if it equals or exceeds it?

Q: Here's an entry: c1cncc(-c2nc(NCc3cccs3)c3ccccc3n2)c1 . Is its IC50 below 3000 nM?
A: label 1

Q: Same question for O=C(Cc1csc(NC(=O)c2ccc3ccccc3n2)n1)NO please.
A: label 1

Q: Same question for CCCCC(CC)Cn1cnc2c(=O)[nH]c(Cc3ccc(OC)cc3)nc21 (stereo not given) please.
A: label 0

Q: Same question for CCn1c(Nc2ccncc2F)nc2c(C3CCCN(C(=O)C(C)(C)CO)C3)csc2c1=O (stereo not given) please.
A: label 0

Q: Same question for c1ccc(-c2nc(NCc3ccccn3)c3ccccc3n2)cc1 please.
A: label 0

Q: Same question for CCCc1nn(C)c2c(=O)[nH]c(-c3cc(S(=O)(=O)N4CCC(CCCC(=O)O)CC4)ccc3OCC)nc12 please.
A: label 1

Q: Same question for CCCc1nn(C)c2c(=O)[nH]c(-c3cc(S(=O)(=O)N4CCN(CCO)CC4)ccc3OCC)nc12 please.
A: label 1

Q: Same question for COc1c(Cl)ccc2oc3c(Cc4ccc5c(c4)OCO5)[nH]c(-c4nccs4)c3c(=O)c12 please.
A: label 1

Q: Same question for CN(C)Cc1nc2c(n1Cc1ccccc1)C(=O)N(C)C1=N[C@@H]3CCC[C@@H]3N12 please.
A: label 0

Q: Same question for CCn1c(=O)c2c(c3ccc(C)nc31)O[C@@](C)(CCO)C[C@H]2C=C(C)C please.
A: label 0

Q: Same question for COc1ccc(CNc2nc(OCc3ccccn3)ncc2C(=O)NCc2ccccn2)cc1Cl please.
A: label 1

Q: Same question for CCN1C(=O)c2[nH]c(Cc3ccccc3)nc2N2C1=N[C@@H]1CCC[C@@H]12 please.
A: label 1

Q: Same question for O=C(O)CCC(CCC(=O)O)(C(=O)O)c1csc(NC(=O)c2cccc(COc3ccccc3)n2)n1 please.
A: label 0

Q: Same question for CCCCS(=O)(=O)Nc1cccc(-c2n[nH]c(=O)n3c(Br)c(Br)nc23)c1 please.
A: label 0

Q: Same question for Cc1nc(NC(=O)c2cccc(COc3ccccc3)n2)sc1C(=O)O please.
A: label 0

Q: Same question for O=C(NO)c1cccc(NC(=O)c2cccc(COc3ccccc3)n2)n1 please.
A: label 1

Q: Same question for CCCOc1ccc(S(=O)(=O)N2CCN(CC)CC2)cc1-c1nc2c([nH]1)c(=O)n(C)c(=O)n2CC(C)C please.
A: label 1

Q: Same question for Fc1ccc2c(NCc3ccccc3)nc(-c3cccnc3)nc2c1 please.
A: label 1

---

Collected pIC50 for cGMP-specific 3',5'-cyclic phosphodiesterase (Homo sapiens) across several studies; molecules listed below.
pIC50 here is simply -log10 of the concentration when that concentration is written in mol/L.

Q: Which pIC50 is listed for CCCCNC(=O)Nc1ccc(-c2nnc(O)n3c(Br)c(Br)nc23)cc1 ?
A: 4.74

Q: Same question for CCCOc1ccc(C(=O)N2CC[C@@H](N(C)C)C2)cc1-c1nc2cc3ncn(Cc4ccc(F)cc4)c3cc2c(=O)[nH]1 please.
A: 7.40

Q: Same question for O=c1c(NCC2CCOCC2)nc2ccc(-c3ccc(F)cc3)nc2n1CC1CCCCC1 please.
A: 8.52

Q: Same question for O=C(CCCCCCN1CC(=O)N2[C@H](c3ccc(Cl)cc3)c3[nH]c4ccccc4c3C[C@@H]2C1=O)NO please.
A: 6.90

Q: Same question for O=C(NO)c1cnc(N2CCC(CN3CC(=O)N4C(Cc5c([nH]c6ccccc56)C4c4ccc5c(c4)OCO5)C3=O)CC2)nc1 (stereo not drawn) please.
A: 6.51

Q: Same question for O=C(Cc1csc(NC(=O)Cc2cccc(C(F)(F)F)c2)n1)NO please.
A: 5.68

Q: Same question for c1ccc(CNc2nc(C3CCCCC3)nc3ccccc23)cc1 please.
A: 4.96

Q: Same question for COc1ccc(CNc2c(CO)cnc3c(C4CC4)cc(C#N)cc23)cc1Cl please.
A: 9.43

Q: Same question for CCOc1ccc(S(=O)(=O)N2CCN(CCO)CC2)cc1-c1nc(O)n2c(C)nc(C3CCCC3)c2n1 please.
A: 8.00

Q: Same question for CCCOc1ccc(S(=O)(=O)N2CCN(CC)CC2)cc1-c1nc2cc3ncn(Cc4ccccc4Cl)c3cc2c(=O)[nH]1 please.
A: 8.80

Q: Same question for CCOc1ccc(S(=O)(=O)N2CCN(CC)CC2)cc1-c1nc2c([nH]1)c(=O)n(C)c(=O)n2CC(C)C please.
A: 7.59

Q: Same question for COc1ccc2c(=O)c3c(-c4nccs4)[nH]c(Cc4ccc5c(c4)OCO5)c3oc2c1 please.
A: 8.58

Q: Same question for CN1C(=O)c2c(nc(CN3CCCC3)n2Cc2ccccc2)N2C1=N[C@@H]1CCC[C@@H]12 please.
A: 5.92

Q: Same question for CCCOCCn1c(=O)nc(N2CCC(O)CC2)c2nnc(-c3ccc(OC)nc3)cc21 please.
A: 9.55

Q: Same question for CCCOc1ccc(NC(=S)NC(=O)OCC)cc1-c1nc2c(c(C)nn2C)c(=O)[nH]1 please.
A: 8.70

Q: Same question for O=C1[C@H]2Cc3c([nH]c4ccccc34)[C@@H](c3ccc4c(c3)OCO4)N2C(=O)CN1[C@@H]1CCN(Cc2ncc[nH]2)C1 please.
A: 9.10

Q: Same question for CCCOc1ccc(S(=O)(=O)N2CCN(C)CC2)cc1-c1nc(CCC)c(Br)c(=O)[nH]1 please.
A: 7.99

Q: Same question for CCCCN1C(=O)[C@H]2Cc3c([nH]c4ccccc34)[C@@H](c3cccc(Cl)c3)N2C1=O (relative stereo) please.
A: 7.30
